protocol.notes: ATG_TA_CIS: Attagene CIS-FACTORIAL HepG2 Assay for human TA Basal Promoter (AID 2282964)
condition.context: HepG2 Attagene CIS-factorial TA basal promoter reporter; actives raise or lower the signal
Activity calls are given as the source filed them. How the source made its calls: active means hit-call score of the fitted dose curve at least 0.9, where 1 is the maximum; inactive means score below 0.9.
Labels: active, inactive

{"compound": "CCn1nc(Cc2ccccc2)cc1C1CCN(C[C@H]2C[C@H](N(C)[C@@H](C(=O)O)C(C)C)C[C@@H]2c2cccc(F)c2)CC1", "cat": "inactive"}
{"compound": "CC(C)=CCC/C(C)=C\\CO", "cat": "inactive"}
{"compound": "Oc1ccc2c(c1)-c1ccccc1C2", "cat": "active"}
{"compound": "COC(=O)c1ccccc1O", "cat": "inactive"}
{"compound": "O=c1n(CC2CO2)c(=O)n(CC2CO2)c(=O)n1CC1CO1 (stereo unspecified)", "cat": "inactive"}
{"compound": "Cc1ccc(N)cc1O", "cat": "inactive"}
{"compound": "CCOC(=O)COc1ccc2c(c1)CC(NCC(O)c1cccc(Cl)c1)CC2 (stereo unspecified)", "cat": "inactive"}
{"compound": "Cn1cnc([N+](=O)[O-])c1Sc1ncnc2nc[nH]c12", "cat": "inactive"}
{"compound": "CCOCCO", "cat": "inactive"}
{"compound": "C1=CCCC=CCCC=CCC1", "cat": "inactive"}
{"compound": "CC(=O)OC[C@H]1O[C@@](COC(C)=O)(O[C@H]2O[C@H](COC(C)=O)[C@@H](OC(C)=O)[C@H](OC(C)=O)[C@H]2OC(C)=O)[C@@H](OC(C)=O)[C@@H]1OC(C)=O", "cat": "inactive"}

---

Read-out: Interleukin-6 (IL6), IL6 (gene 3569)
protocol.notes: BSK_CASM3C_IL6: BioMAP Diversity Plus: CASM3C Assay for Interleukin-6 (IL6) Biomarker Activity for (AID 2283040)
condition.context: primary human coronary artery smooth muscle cells; actives raise or lower the signal
Active and inactive are the calls of the source. Rule for the calls: active = hit-call score of the fitted dose curve at least 0.9, where 1 is the maximum; inactive = score below 0.9.

{"compound": "O=C1OC(=O)C2C3C=CC(C3)C12 (stereo unspecified)", "AC50": "inactive"}
{"compound": "CNS(=O)(=O)c1cc(C(=O)N2CCC(CCN3C4CCC3CC(n3c(C)nc5ccccc53)C4)(c3cccc(F)c3)CC2)c(Cl)cc1F (stereo unspecified)", "AC50": "5.62 µM (active)"}
{"compound": "Cc1ccc(N)cc1O", "AC50": "inactive"}
{"compound": "Cc1[nH]cnc1C[C@H]1CCc2c(C)c3ccccc3n2C1=O", "AC50": "inactive"}
{"compound": "CCCN(C1CCN(C(=O)C2CCNCC2)CC1)[C@@H]1CCc2ccc(OC)cc2C1", "AC50": "inactive"}
{"compound": "CC(C)=CCC/C(C)=C/CO", "AC50": "inactive"}

---

protocol.notes: ATG_TCF_b_cat_CIS: Attagene CIS-FACTORIAL HepG2 Assay for human T-Cell-Factor with beta-catenin (TCF/b-cat) (AID 2282965)
condition.context: HepG2 TCF/beta-catenin cis-reporter transcription, actives raise or lower the signal
Method: ATG_CIS is a cell-based, multiplexed-readout assay that uses HepG2, a human liver cell line, with measurements taken at 24 hours after chemical dosing in a 24-well plate.ATG_TCF_b_cat_CIS is one of 52 assay component(s) measured or calculated from the ATG_CIS assay. […] This assay endpoint, ATG_TCF_b_cat_CIS, was analyzed with bidirectional fitting relative to DMSO as the negative control and baseline of activity. […]
Calls of active or inactive are those of the source. Rule for the calls: active = hit-call score of the fitted dose curve at least 0.9, where 1 is the maximum; inactive = score below 0.9.
Outcome codes: active, inactive

{"compound": "CN(C)c1ccc(Cc2ccc(N(C)C)cc2)cc1", "cat": "inactive"}
{"compound": "Clc1nc(Cl)c(Cl)c(Cl)c1Cl", "cat": "inactive"}
{"compound": "CNCc1ccc(NC(=O)c2c[nH]c3c2C(=O)CCC3)cc1", "cat": "active"}
{"compound": "CCCN(C1CCN(C(=O)C2CCNCC2)CC1)[C@@H]1CCc2ccc(OC)cc2C1", "cat": "active"}
{"compound": "COC(=O)c1ccccc1O", "cat": "inactive"}
{"compound": "Cn1cnc([N+](=O)[O-])c1Sc1ncnc2nc[nH]c12", "cat": "inactive"}
{"compound": "Cn1c(=O)c2c(ncn2C)n(C)c1=O", "cat": "inactive"}
{"compound": "CC(C)CCCCCCOC(=O)c1ccc(C(=O)OCCCCCCC(C)C)c(C(=O)OCCCCCCC(C)C)c1", "cat": "inactive"}
{"compound": "CCC(C)(C)C(=O)O[C@H]1C[C@@H](C)C=C2C=C[C@H](C)[C@H](CC[C@@H]3C[C@@H](O)CC(=O)O3)[C@H]21", "cat": "inactive"}
{"compound": "C1N2CN3CN1CN(C2)C3", "cat": "inactive"}
{"compound": "CCCCC(CC)COC(=O)CCCCCCCCC(=O)OCC(CC)CCCC (stereo unspecified)", "cat": "inactive"}

---

protocol.notes: ATG_ISRE_CIS: Attagene CIS-FACTORIAL HepG2 Assay for human Interferon Regulatory Factor 1 (IRF1) binding to an Interferon-Stimulated Response Element (ISRE) (AID 2282948)
condition.context: HepG2 ISRE cis-reporter (Attagene), mRNA transcription readout; actives raise or lower the signal
Activity calls are given as the source filed them. The calls were made as follows: active = hit-call score of the fitted dose curve at least 0.9, where 1 is the maximum; inactive = score below 0.9.
Outcome codes: active, inactive

{"molecule": "COC(=O)c1ccccc1O", "cat": "inactive"}
{"molecule": "CCOC(=O)CC(CC(=O)OCC)(OC(C)=O)C(=O)OCC", "cat": "inactive"}
{"molecule": "CC[C@H]1CC[C@H](NCc2cc3c(cc2OC)[C@H]2C[C@H]2C(=O)N3C)[C@H](c2ccccc2)N1", "cat": "active"}
{"molecule": "NC(=O)NO", "cat": "inactive"}
{"molecule": "CC[C@H]1OC(=O)[C@H](C)[C@@H](O[C@H]2C[C@@](C)(OC)[C@@H](O)[C@H](C)O2)[C@H](C)[C@@H](O[C@@H]2O[C@H](C)C[C@H](N(C)C)[C@H]2O)[C@](C)(O)C[C@@H](C)C(=O)[C@H](C)[C@@H](O)[C@]1(C)O", "cat": "inactive"}
{"molecule": "Cc1ccc(S(=O)(=O)O)cc1C", "cat": "inactive"}
{"molecule": "Fc1ccccc1[C@@H](F)COC1CCC(Nc2ncnc3[nH]ncc23)CC1 (stereo not given in full)", "cat": "active"}
{"molecule": "CCc1cc(SCc2sc(-c3ccc(C(F)(F)F)cc3)nc2CN2CCN(c3ccc(OC)cc3)CC2)ccc1OCC(=O)O", "cat": "active"}
{"molecule": "Cc1ccc(N)cc1O", "cat": "inactive"}
{"molecule": "CC1=CC(=O)CC(C)(C)C1", "cat": "inactive"}

---

protocol.notes: STM_H9_OrnCyssISnorm_ratio: Stemina devTOX quickPredict H9 human embryonic stem cell (hESC)-based Assay for Ornithine (ORN):Cystine (CYSS) Ratio (AID 2283714)
Inconclusive results are not listed. Active and inactive are the calls of the source. Rule for the calls: active = hit-call score of the fitted dose curve at least 0.9, where 1 is the maximum; inconclusive = response in the unintended direction; inactive = score below 0.9.
Outcome codes: active, inactive

{"compound": "NC(=O)NO", "cat": "active"}
{"compound": "CN(C)c1ccc(N=NS(=O)(=O)O)cc1", "cat": "active"}
{"compound": "Cn1cnc([N+](=O)[O-])c1Sc1ncnc2nc[nH]c12", "cat": "active"}
{"compound": "CC[C@H](C)C(=O)O[C@H]1C[C@@H](C)C=C2C=C[C@H](C)[C@H](CC[C@@H]3C[C@@H](O)CC(=O)O3)[C@H]21", "cat": "active"}
{"compound": "CC[C@H]1CC[C@H](NCc2cc3c(cc2OC)[C@H]2C[C@H]2C(=O)N3C)[C@H](c2ccccc2)N1", "cat": "active"}
{"compound": "O=C1CCC(N2C(=O)c3ccccc3C2=O)C(=O)N1 (centres undefined)", "cat": "active"}
{"compound": "CC(C)CC(C)(O)C#CC(C)(O)CC(C)C (centres undefined)", "cat": "active"}
{"compound": "On1ccccc1=S", "cat": "active"}
{"compound": "O=P(OC(CCl)CCl)(OC(CCl)CCl)OC(CCl)CCl", "cat": "inactive"}

---

protocol.notes: ATG_PBREM_CIS: Attagene CIS-FACTORIAL HepG2 Assay for human Phenobarbital-responsive Enhancer Module (PBREM) (AID 2282955)
condition.context: HepG2 PBREM cis-reporter, Attagene multiplexed transcription; actives raise or lower the signal
Calls of active or inactive are those of the source. Rule for the calls: active = hit-call score of the fitted dose curve at least 0.9, where 1 is the maximum; inactive = score below 0.9.
Labels: 1 (active), 0 (inactive)

{"molecule": "O=C(O)c1cccc(N(Cc2cccnc2)c2ccc(OC(F)F)c(OC(F)F)c2)c1", "cat": 0}
{"molecule": "CC/C(=C\\C(=N/O)C(N)=O)C(C)[N+](=O)[O-] (stereo not given)", "cat": 0}
{"molecule": "CCOCCO", "cat": 0}
{"molecule": "CCCC(=O)OCC", "cat": 0}
{"molecule": "COc1ccc2sc(C(=O)Nc3nnn[nH]3)c(OC(C)C)c2c1", "cat": 0}
{"molecule": "O=C(O)c1cccc(Oc2ccccc2)c1", "cat": 0}
{"molecule": "COC(=O)CC(=O)OC", "cat": 0}
{"molecule": "Cn1c(=O)cc(Oc2ccc(F)cc2F)c2cnc(NCC(C)(C)O)nc21", "cat": 0}
{"molecule": "CCC(C)(C)C(=O)O[C@H]1C[C@@H](C)C=C2C=C[C@H](C)[C@H](CC[C@@H]3C[C@@H](O)CC(=O)O3)[C@H]21", "cat": 0}
{"molecule": "Nc1cccc(N)c1", "cat": 0}
{"molecule": "C[C@](N)(Cc1ccc(O)c(O)c1)C(=O)O", "cat": 0}
{"molecule": "O=C(NS(=O)(=O)/C=C/c1ccccc1)c1ccc(F)cc1Cl", "cat": 0}
{"molecule": "Cn1c(=O)c2c(ncn2C)n(C)c1=O", "cat": 0}
{"molecule": "Fc1ccccc1[C@@H](F)COC1CCC(Nc2ncnc3[nH]ncc23)CC1 (stereo not given in full)", "cat": 1}
{"molecule": "CC(C)CC(C)(O)C#CC(C)(O)CC(C)C (stereo not given)", "cat": 0}

Data origin, for the record: PubChem BioAssay (EPA / NIEHS)
